Origin of values: the RNAGym collection of RNA variant scans (doi:10.1093/nar/gkz1192)

Listing of recorded self-cleavage by entry.
B1: CPEB3 Ribozyme (parent)
chain: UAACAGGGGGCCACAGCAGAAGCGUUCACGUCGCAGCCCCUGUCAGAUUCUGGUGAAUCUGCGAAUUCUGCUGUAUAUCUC

Variants of: B1
measurement.notes: self-cleavage, relative activity (ratio to wild type); higher = more cleavage; in vitro, sequencing

polymer.sequence	self-cleavage
UAACAGGGGGCCACAGCAGAAGCGUUCACGUCGCAGCCCAUGUCAGAUUCUGGCGAAUCUGCGAAUUCUGCUGUAUAUCUC [C40A U54C]	0.28
UAACAGGGGGCCACAGCAGAAGCGUUCACGUCGCAGCCCCCGUCAGAUUCUGGUGAAUCUGCGAAUUCUGCUGUAUCUCUC [U41C A77C]	1.09
UAACAGGGGGCCACAGCAGAAGCGUUCAUGUCGCAGCCCCUGUCAGAUUCUGGUGAAUCUGCGAAUUCUGCUGUAUAUUUC [C29U C79U]	0.38
UAACAGGGGGCCACAGCAGAAGCGUUCACGUCGCAGCCCCUGUCAGAUUCUGGUGAAUCUGCGAAUUCUGCUGUAUAUCCC [U80C]	1.08
UAACAGGGGGCCACAGCCGAAGCGUUCACGUCGCAGCCCCUGUCAGAUUCCGGUGAAUCUGCGAAUUCUGCUGUAUAUCUC [A18C U51C]	0.36
UAACAGGGGGCCACAGCAGAAGCGUUCACGUCGCAGCCCCUGUCAGAUUCCGGUGAAUCUGCGAAUUGUGCUGUAUAUCUC [U51C C68G]	0.69
UAACAGGGAGCCACAGCAGAAGCGUUCACGUCGCAGCCCCUGUCAGAUUCUGGUCAAUCUGCGAAUUCUGCUGUAUAUCUC [G9A G55C]	0.24
UAACAGGGGGCCACAGCAGAAGCGUUCACGUCGCAGCCCCUGUCAGAUUCUUGUGAAUCUGCGAAUUCUGCUGUAUACCUC [G52U U78C]	1.08
UAACAGGGGGCCACAGCAGACGCGUUCACGUCGCAGCCCCUGUCAGAUUCUGGUGAAUCUGCGAAUCCUGCUGUAUAUCUC [A21C U67C]	0.1
UAACCGGGGGCCACAGCAGAAGCGUUCACUUCGCAGCCCCUGUCAGAUUCUGGUGAAUCUGCGAAUUCUGCUGUAUAUCUC [A5C G30U]	0.24
UAACAGGGGGCCACAGCAGAAGCGUUCACGUCGCAGCCCCUGUCAGAUUCUGGUGAAUCUGCGAAUUCUACUGUAUGUCUC [G70A A77G]	0.53
UAACAGGGGGCCACAGCAGAAGCGUUCACGUCGCAGCCCCUGUCAGAUUCUGGUGAAGCUGCGAAUUCUGCUGUAUAUCUC [U58G]	0.34
UAACAGGGAGCCACAGCAGAAGCGUUCACGUCGCAGCCCCUGUCAGAUUCUGGUGAAUCUGCGAAUUCUGCUGUAUACCUC [G9A U78C]	0.25
UAACAGGGGGCCACAGCAGAAGCUUCCACGUCGCAGCCCCUGUCAGAUUCUGGUGAAUCUGCGAAUUCUGCUGUAUAUCUC [G24U U26C]	0.11
UAACAGGGGGCCACAGCAGAAGCGUUCACGUCACAGCCCCUGUCAGAUACUGGUGAAUCUGCGAAUUCUGCUGUAUAUCUC [G33A U49A]	0.29
UAACAGGGGGCCACAGCAGAAGCGUUCGCGUCGCAGCCCCUGUCAGAUUCUGGUCAAUCUGCGAAUUCUGCUGUAUAUCUC [A28G G55C]	0.39
UAACAUGGGGCCACAGCCGAAGCGUUCACGUCGCAGCCCCUGUCAGAUUCUGGUGAAUCUGCGAAUUCUGCUGUAUAUCUC [G6U A18C]	0.14
UAACAGGGGGCCACAGCAGAAGCGUUCACGUCGCAGCCCUUGUCAGAUUCUGGUGAAUCUGCGAAUUGUGCUGUAUAUCUC [C40U C68G]	0.28
UAACAGGGGGCCACAGCAGGAGCGUUCACGUCGCAGCCCCUGUCAGAUUCUGGUGAAUCUGCGAAUUCUCCUGUAUAUCUC [A20G G70C]	0.19
UAACAGGGGGCCACAGCAGAAGCGUUAACGUCGCAGCCCCUGUCAGAUUCUGGUGAAUCUGCGAAUUCUGCUGUAUAUCUU [C27A C81U]	0.11
UAACAGGGGGCCACAGCAGAAGCGUUCACGUCGCAGCCCCUGUCAGAUUCUGGUGGAUCUGCGAAUUCUGCUGUAUACCUC [A56G U78C]	0.73
UAACGGGGGGCCACAGCAGAAGCGUUCUCGUCGCAGCCCCUGUCAGAUUCUGGUGAAUCUGCGAAUUCUGCUGUAUAUCUC [A5G A28U]	0.55
UAACGGGGGGCCACAGCAGAAGCGUUCACGUCGCAGCCCCUGUCAGAUUCUGGUGAAUCUGCCAAUUCUGCUGUAUAUCUC [A5G G63C]	0.5
UAACAGGGGGCCACAGCAGAAGCGUUCAUGUCGCAGCCCCUGUCAGUUUCUGGUGAAUCUGCGAAUUCUGCUGUAUAUCUC [C29U A47U]	0.24
UAACAGGGGGCCACGGCAGAAGCGUUCACGUCGCAGCCCCUGUCAGGUUCUGGUGAAUCUGCGAAUUCUGCUGUAUAUCUC [A15G A47G]	0.87
UAACAGGGGGCCACAGUAGAAGCGUUCACGUCGCAGCCCCUGUCAGAUUCUGGUGAAUCUGAGAAUUCUGCUGUAUAUCUC [C17U C62A]	0.11
UAGCAGGGGGCCACAGCAGAAGCGUUCACGUCGCAACCCCUGUCAGAUUCUGGUGAAUCUGCGAAUUCUGCUGUAUAUCUC [A3G G36A]	0.2
UAACAGGGGGCCACAGCAGAAGCGUUCACGUCGCAGCCCCUGUCAGAUUCUGGUGAAUCGGCGAAUUCUGCUGUAUAUCUC [U60G]	0.48
UAACAGGGGGCCACAGCAGAAGCGUUCUCGUCGCAGCCGCUGUCAGAUUCUGGUGAAUCUGCGAAUUCUGCUGUAUAUCUC [A28U C39G]	0.27
UUAUAGGGGGCCACAGCAGAAGCGUUCACGUCGCAGCCCCUGUCAGAUUCUGGUGAAUCUGCGAAUUCUGCUGUAUAUCUC [A2U C4U]	1.15
UAACAGGGGGCCACAGCAGAAGCGUUCACGUCGCAGCCCCCGUCAGAUUCUGGUGAAUCUGCGAAUUCUGCUGUAUAUCUA [U41C C81A]	1.19
GAACAGGGGGCCACAGCAGCAGCGUUCACGUCGCAGCCCCUGUCAGAUUCUGGUGAAUCUGCGAAUUCUGCUGUAUAUCUC [U1G A20C]	0.55
GAACAGGGGGCCACGGCAGAAGCGUUCACGUCGCAGCCCCUGUCAGAUUCUGGUGAAUCUGCGAAUUCUGCUGUAUAUCUC [U1G A15G]	0.84
UAACAGGGGGCAACAGCAGAAGCGUUCACGUCGCAGCCCCUGUCAGAUUCUGGUGAAUCCGCGAAUUCUGCUGUAUAUCUC [C12A U60C]	0.3
UAACAGGGGGCCACAGCAAAAGCGUUCACGUCGCAGCCCCUGUCGGAUUCUGGUGAAUCUGCGAAUUCUGCUGUAUAUCUC [G19A A45G]	0.25
UAACAGGGGGCCACAGCAGAAGCGUUCACGUCUCAGCACCUGUCAGAUUCUGGUGAAUCUGCGAAUUCUGCUGUAUAUCUC [G33U C38A]	0.2
UAACAGGGGGCCACAGCAGAAGCGUUCACGUCGCAGCCCCUGUCAGAUUCUGGUGAAUCUGUGAAUUCUGCCGUAUAUCUC [C62U U72C]	0.29
UAACAGGGGGCCACAGCAGAAGCGUUCACGUCGCAGCCCCUGUCAGAUUCUGGAGAAUCUGCGAAGUCUGCUGUAUAUCUC [U54A U66G]	0.65
UAACAGGGGGCCACAGCAGAAGCGUUCACGUCACAGCCCCUGUCAGAUUCUGGUGAACCUGCGAAUUCUGCUGUAUAUCUC [G33A U58C]	0.08
UAACAGGGGGCCACAGCAGAAGCGUUCACGUCGCAGCCCCUGUCAGAUUCUGGUGAAUCUGCGAAUUCAGGUGUAUAUCUC [U69A C71G]	0.22
UAACAGGGGGCCACAGCAGAAGCGUUCACGUCGCAGCCCCUGUCAGAUUCUUGUGAAUCUGCUAAUUCUGCUGUAUAUCUC [G52U G63U]	1.2
UAACGGGGGGCCACAGCAGAAGCGUUCACAUCGCAGCCCCUGUCAGAUUCUGGUGAAUCUGCGAAUUCUGCUGUAUAUCUC [A5G G30A]	0.51
UAACAGGGGGUCACAGCAGAAGCGUUCACGUCGCAGCCCCUGUCAGAUUCUGGUGAAUCUGCGGAUUCUGCUGUAUAUCUC [C11U A64G]	0.34
UAACAGGGGGCGACAGCAGAAGCGUUCACGUCGCAGCCCCUGUCAGAUUCUGGCGAAUCUGCGAAUUCUGCUGUAUAUCUC [C12G U54C]	0.51
UAACAGGGGGCGACAGCAGAAGCGUUCACGUCGCAGCCCCUGUCAGAUUCUGGUGAAUCUGCGAACUCUGCUGUAUAUCUC [C12G U66C]	0.24
UAACAGGGGGCCACAGCAGGAGCGUUCACGGCGCAGCCCCUGUCAGAUUCUGGUGAAUCUGCGAAUUCUGCUGUAUAUCUC [A20G U31G]	0.58
